biological target: HvExoI W286F mutant (Hordeum vulgare, UniProt Q9XEI3, W311F); assay: Relative rates of hydrolysis of poly-, oligosaccharides and aryl-glycosides; type: biochemical; conditions: substance is the substrate, nd = activity not detected
Sequence (Q9XEI3 26-630 W311F): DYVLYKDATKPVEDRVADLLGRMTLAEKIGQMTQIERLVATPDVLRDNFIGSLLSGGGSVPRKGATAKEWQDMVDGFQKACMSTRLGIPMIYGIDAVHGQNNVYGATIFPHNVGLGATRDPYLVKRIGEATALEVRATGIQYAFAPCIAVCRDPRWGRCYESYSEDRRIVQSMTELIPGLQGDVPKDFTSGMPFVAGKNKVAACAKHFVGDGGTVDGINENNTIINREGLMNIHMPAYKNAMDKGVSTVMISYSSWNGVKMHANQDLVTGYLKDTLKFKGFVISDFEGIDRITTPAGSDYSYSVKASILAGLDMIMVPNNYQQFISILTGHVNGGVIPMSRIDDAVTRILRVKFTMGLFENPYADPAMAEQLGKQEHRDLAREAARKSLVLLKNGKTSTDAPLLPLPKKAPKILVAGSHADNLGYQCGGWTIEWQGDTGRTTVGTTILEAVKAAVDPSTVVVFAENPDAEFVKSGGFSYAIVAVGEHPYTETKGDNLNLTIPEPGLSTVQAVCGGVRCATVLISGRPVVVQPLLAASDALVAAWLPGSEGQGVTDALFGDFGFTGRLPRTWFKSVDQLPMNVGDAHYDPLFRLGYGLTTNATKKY
measured.property: Activity (relative rate of hydrolysis) (μmole/min per mg protein)
Supply the numeric figure in μmole/min per mg protein, leaving out any unit text.

Report value only: Activity (relative rate of hydrolysis), HvExoI W286F mutant (Hordeum vulgare, UniProt Q9XEI3, W311F), OC[C@H]1O[C@@H](O[C@@H]2[C@@H](O)[C@H](O[C@@H]3[C@@H](O)[C@H](O[C@H]4[C@H](O)[C@@H](CO)OC(O)[C@@H]4O)O[C@H](CO)[C@H]3O)O[C@H](CO)[C@H]2O)[C@H](O)[C@@H](O)[C@@H]1O (stereo partly shown)
1.1

Report value only: Activity (relative rate of hydrolysis), HvExoI W286F mutant (Hordeum vulgare, UniProt Q9XEI3, W311F), OC[C@H]1O[C@@H](O[C@H]2[C@H](O)[C@@H](O)[C@H](O[C@H]3[C@H](O)[C@@H](O)[C@H](O[C@H]4[C@H](O)[C@@H](O)C(O)O[C@@H]4CO)O[C@@H]3CO)O[C@@H]2CO)[C@H](O)[C@@H](O)[C@@H]1O (stereo partly shown)
0.1

Report value only: Activity (relative rate of hydrolysis), HvExoI W286F mutant (Hordeum vulgare, UniProt Q9XEI3, W311F), OC[C@H]1O[C@@H](O[C@@H]2[C@@H](O)[C@H](O[C@@H]3[C@@H](O)[C@H](O[C@@H]4[C@@H](O)[C@H](O[C@@H]5[C@@H](O)[C@H](O)O[C@H](CO)[C@H]5O)O[C@H](CO)[C@H]4O)O[C@H](CO)[C@H]3O)O[C@H](CO)[C@H]2O)[C@H](O)[C@@H](O)[C@@H]1O
1.0

Report value only: Activity (relative rate of hydrolysis), HvExoI W286F mutant (Hordeum vulgare, UniProt Q9XEI3, W311F), OC[C@H]1O[C@@H](O[C@@H]2[C@@H](O)[C@H](O[C@H]3[C@H](O)[C@@H](CO)OC(O)[C@@H]3O)O[C@H](CO)[C@H]2O)[C@H](O)[C@@H](O)[C@@H]1O (stereo partly shown)
1.3
